- System: P388 leukemia ip, CD2F1 mice, survival T/C
- ASSAY_PROTOCOL: NCI In Vivo Anticancer Drug Screen. Data for tumor model P388 Leukemia (intraperitoneal) in CD2F1 (CDF1) mice
- RECORDED_CONDITIONS: endpoint: median survival time; dose: 400.0 mg/kg/injection; schedule: Q04DX003 (ip); vehicle: Klucel (hydroxypropylcellulose) (HPC); higher = longer survival
Inconclusive results and toxic doses are left out.
Hi there, I'd appreciate the recorded T/C for every entry that follows.

Here is how some molecules turned out for T/C.
INSERT INTO results (molecule, assay_endpoint, value) VALUES
  ('COC(=O)C1=C/CCCN/C=C\1C(=O)OC', 'T/C', '98 % of control'),
  ('CN(C)c1ccc(/C=C2/CCC2=O)cc1', 'T/C', '95 % of control');

For each of the molecules below, state T/C.
1. CC1(C)c2ccccc2-c2nc3ccccc3nc2C1O (centres undefined)
2. Cc1nnc(N/N=C/c2ccccc2)n1/N=C\c1ccccc1

1. 112 % of control
2. 105 % of control

###

- Tested on: P388 leukemia ip, CD2F1 mice, survival T/C
- ASSAY_PROTOCOL: NCI In Vivo Anticancer Drug Screen. Data for tumor model P388 Leukemia (intraperitoneal) in CD2F1 (CDF1) mice
- RECORDED_CONDITIONS: endpoint: median survival time; dose: 60.0 mg/kg/injection; schedule: Q01DX005 (ip); vehicle: saline with Tween-80; higher = longer survival
Toxic doses and inconclusive results are not listed.
ASSAY_ENDPOINT: T/C

Here is how some compounds turned out for T/C.
INSERT INTO assay_data (compound, value) VALUES
  ('NC(Cc1c[nH]c2ccccc12)C(=O)NCCS(=O)(=O)O (configuration not stated)', '102 % of control'),
  ('CC(C)(C)n1nc(C2CC2)cc1NC(=O)Nc1ccc(Cl)cc1', '93 % of control');

For each of the compounds below, state T/C.
1. O=c1ssc2ncccc12
2. CC1=CC(C)(C)Nc2ccc(OC(=O)/C=C(C)/C=C/C=C(C)/C=C/C3=C(C)CCCC3(C)C)cc21
3. COc1ccc(Cc2coc3cc(OC)cc(OC)c3c2=O)cc1
4. CC(CN(C)C)C(=O)/C=C/c1c(Cl)cccc1Cl (configuration not stated)
5. S=CN1CCCCC1
6. O=C1CSC(c2ccc(C(F)(F)F)cc2)N1c1nncs1 (configuration not stated)
7. N#Cc1c(-c2ccc(Cl)cc2)cn2c1[nH]c(=O)c1ccccc12

["104 % of control", "94 % of control", "98 % of control", "111 % of control", "106 % of control", "99 % of control", "107 % of control"]

For each of the compounds below, state T/C.
1. O=C(C1CC2CCN1CC2)N1CCN(C(=O)C2CC3CCN2CC3)CC1 (configuration not stated)
2. CCC(c1ccc(O)cc1)C(CC)c1ccc(O)c(CN(C)C)c1 (configuration not stated)
3. COc1ccc(Nc2nc3c(s2)c(C)c(O)c2ccccc23)cc1

1: 101 % of control; 2: 96 % of control; 3: 95 % of control

###

- Test system: P388 leukemia ip, CD2F1 mice, survival T/C
- ASSAY_PROTOCOL: NCI In Vivo Anticancer Drug Screen. Data for tumor model P388 Leukemia (intraperitoneal) in CD2F1 (CDF1) mice
- RECORDED_CONDITIONS: endpoint: median survival time; dose: 50.0 mg/kg/injection; schedule: Q01DX009 (ip); vehicle: suspension in saline; higher = longer survival
Inconclusive results and toxic doses are left out.
Hi there, I'd appreciate the recorded T/C for every entry that follows.

INSERT INTO assay_data (compound, value) VALUES
  ('Cc1c(C)c2c(c3c1OC(C)(C)CC3)CCC(C)(C)O2', '88 % of control'),
  ('N#CC(NCC1(O)CCCCC1)C(O)c1ccccc1 (configuration not stated)', '108 % of control'),
  ('Nc1c(C(=O)Nc2ccc(NC(=O)c3ccc4c(c3N)C(=O)c3ccccc3C4=O)c3c2C(=O)c2ccccc2C3=O)ccc2c1C(=O)c1ccccc1C2=O', '103 % of control'),
  ('Nc1ccc(/C=C/c2ccc(N)cc2S(=O)(=O)O)c(S(=O)(=O)O)c1', '95 % of control'),
  ('O=c1[nH]cc(N=Cc2ccccc2F)c(=O)[nH]1', '92 % of control'),
  ('Cc1ccc(N2C(=O)CSC2=S)cc1Br', '93 % of control');

Missing value: T/C, P388 leukemia ip, CD2F1 mice, survival T/C, entry Fc1ccc(CSC(=S)Nc2cccc(C(F)(F)F)c2)cc1 . Fill in?
97 % of control

###

- Test system: P388 leukemia ip, CD2F1 mice, survival T/C
- ASSAY_PROTOCOL: NCI In Vivo Anticancer Drug Screen. Data for tumor model P388 Leukemia (intraperitoneal) in CD2F1 (CDF1) mice
- RECORDED_CONDITIONS: endpoint: median survival time; dose: 400.0 mg/kg/injection; schedule: Q01DX001 (ip); vehicle: Klucel (hydroxypropylcellulose) (HPC); higher = longer survival
Toxic doses and inconclusive results are not listed.
Hi there, I'd appreciate the recorded T/C for every entry that follows.

Here is how some compounds turned out for T/C.
INSERT INTO measurements (compound, value) VALUES
  ('CCn1c(Cl)c(/C=C(/NC(=O)c2ccccc2)C(=O)O)c2ccccc21', '94 % of control'),
  ('O=C(O)Cc1cn2cc(Cl)cc(Cl)c2n1', '98 % of control'),
  ('COc1cc(NC(C)=O)c(OC)c2c(=O)cc(C(=O)O)[nH]c12', '99 % of control'),
  ('O=C1CCCCCCCNC(=O)CCCCCCC(=O)NCCCCCCCC(=O)NCCCCCCCCN1', '89 % of control'),
  ('C/C(=N/N(C)C)c1ccc(Cl)cc1', '106 % of control'),
  ('Nc1c(-c2noc(=O)[nH]2)ncn1Cc1ccccc1', '99 % of control'),
  ('Cn1c(Br)c(C=O)c2ccccc21', '105 % of control'),
  ('CCC1(C(=O)Sc2ccccc2)OC1c1ccccc1 (configuration not stated)', '90 % of control'),
  ('C=CC(C)(C)C1(O)Oc2cc(OC)ccc2C=C1c1ccccc1 (configuration not stated)', '91 % of control'),
  ('CCCCC[CH2][Ge]([CH2]CCCCC)([CH2]CCCCC)[O]C(C)=O', '120 % of control');

For each of the compounds below, state T/C.
1. COCOc1cc(OCc2ccccc2)ccc1C(=O)/C=C/c1cc2c(cc1OCc1ccccc1)OCO2
2. COc1cc(OCc2ccccc2)c(O)cc1-c1coc2cc(OCc3ccccc3)ccc2c1=O

105 % of control
94 % of control

###

- Test system: P388 leukemia ip, CD2F1 mice, survival T/C
- ASSAY_PROTOCOL: NCI In Vivo Anticancer Drug Screen. Data for tumor model P388 Leukemia (intraperitoneal) in CD2F1 (CDF1) mice
- RECORDED_CONDITIONS: endpoint: median survival time; dose: 200.0 mg/kg/injection; schedule: Q01DX001 (ip); vehicle: suspension in saline; higher = longer survival
Inconclusive results and toxic doses are left out.
ASSAY_ENDPOINT: T/C

INSERT INTO results (compound, target, value) VALUES
  ('NC(=S)c1ccccc1[N+](=O)[O-]', 'P388 leukemia ip, CD2F1 mice, survival T/C', '101 % of control'),
  ('CCOC(=O)C(/N=N\c1nn[nH]n1)/N=N/c1ncn[nH]1 (centres undefined)', 'P388 leukemia ip, CD2F1 mice, survival T/C', '102 % of control'),
  ('O=c1[nH]cc(N=Cc2cccc3c2OCO3)c(=O)[nH]1', 'P388 leukemia ip, CD2F1 mice, survival T/C', '86 % of control');

Value lookup for T/C; key = CC1C(=O)C(C)C(c2ccc([N+](=O)[O-])cc2)OC1c1ccccc1 (centres undefined)
102 % of control

###

- Tested on: P388 leukemia ip, CD2F1 mice, survival T/C
- ASSAY_PROTOCOL: NCI In Vivo Anticancer Drug Screen. Data for tumor model P388 Leukemia (intraperitoneal) in CD2F1 (CDF1) mice
- RECORDED_CONDITIONS: endpoint: median survival time; dose: 60.0 mg/kg/injection; schedule: Q01DX005 (ip); vehicle: Klucel (hydroxypropylcellulose) (HPC); higher = longer survival
Toxic doses and inconclusive results are not listed.
Hi there, I'd appreciate the recorded T/C for every entry that follows.

Here is how some molecules turned out for T/C.
INSERT INTO assay_data (molecule, assay_endpoint, value) VALUES
  ('CCC1(O)CC(O)c2c(O)c3c(c(O)c2C1C(=O)OC)C(=O)c1cccc(O)c1C3=O (stereo unspecified)', 'T/C', '96 % of control'),
  ('Cc1ccc2c(c1)C(O)(CC(=O)c1ccccn1)C(=O)N2 (stereo unspecified)', 'T/C', '104 % of control'),
  ('Fc1ccc2nc3ccccc3c(SCCCCCCSc3c4ccccc4nc4ccc(F)cc34)c2c1', 'T/C', '96 % of control'),
  ('COC(=O)N1C(c2ccccc2)C=CC(c2ccccc2)N1C(=O)OC (stereo unspecified)', 'T/C', '103 % of control'),
  ('CN1C2=CC3(OC2C(C)(C)c2ccccc21)N(C)c1ccccc1C3(C)C (stereo unspecified)', 'T/C', '93 % of control');

For each of the molecules below, state T/C.
1. NC(=O)C(C(N)=O)=C1C(=O)c2ccccc2C1=O
2. COc1ccc(C2=C(C#N)C(=C(C#N)C#N)NC(N)=C2C#N)cc1
3. COC(=O)c1cc(Cl)ccc1OS(N)(=O)=O
4. COC1(OC)C(c2ccccc2)C(C#N)(S(=O)(=O)c2ccccc2)C1(OC)OC (stereo unspecified)
5. Oc1nc2nc[nH]n2c1N=Nc1ccccc1
6. N#CC1CCCC(C#N)N1Cc1ccccc1 (stereo unspecified)

1. 95 % of control
2. 105 % of control
3. 103 % of control
4. 100 % of control
5. 115 % of control
6. 110 % of control

For each of the molecules below, state T/C.
1. CC1C=CC(C)S(=O)N1C(=O)Cc1ccccc1 (stereo unspecified)
2. O=C1CSC(c2cccs2)N1c1nncs1 (stereo unspecified)
3. c1ccc(C2=NC(=c3ccc(=C4N=C(c5ccccc5)C(c5ccccc5)=N4)cc3)N=C2c2ccccc2)cc1
4. CCCCN1C(=O)C(CC(=O)OCC)SC1=S (stereo unspecified)
5. CCO/C=C1\N=C(C(O)(c2ccc(Cl)cc2)c2ccc(Cl)cc2)OC1=O

1. 100 % of control
2. 100 % of control
3. 90 % of control
4. 95 % of control
5. 95 % of control

The reported numbers originate from PubChem BioAssay AID330.
